System: Ramos B cells with beta-lactamase reporter gene under control of an NFAT response element
Test: NFAT-bla RA1 Reporter Assay (Ramos-NFAT)
Assay type: cell-based, human
Conditions: Homo sapiens, Ramos, read-out: IMM Ramos-NFAT (IC50)
Readout: IC50

NC(=O)c1cc(F)c(N2CCC[C@@H](NC(=O)Nc3nccs3)C2)nc1Nc1ccc(N2CCOCC2)c(F)c1 [Example 451] :: 80 nM
CN1CCN(c2ccc(Nc3nc(N4CCC[C@@H](N(C)C(=O)c5ccccc5)C4)c(F)cc3C(N)=O)cc2)CC1 [Example 418] :: 380 nM
CN1CCN(c2ccc(Nc3nc(N4CCC[C@@H](NC(=O)Nc5nccs5)C4)c(F)cc3C(N)=O)cc2)CC1 [Example 385] :: 20 nM
CN(C)CCc1ccc(Nc2nc(N3CCCC(F)(F)C3)c(F)cc2C(N)=O)cc1 [Example 475] :: 100 nM
CC(C)(C)OC(=O)N1CCCC(c2ccc(Nc3nc(N4CCCCC4)c(F)cc3C(N)=O)cc2)C1 (stereo not drawn) [Example 523] :: 10000 nM

Then there is this molecule:
Req: Need IC50 of CN1CCN(c2ccc(Nc3nc(N4CCC[C@@H](N5CCCC5=O)C4)c(F)cc3C(N)=O)cc2)CC1 [Example 419] , thanks.
Resp: 180 nM
